Target: T1, PDZD2_2, O15018
T1 sequence (O15018 329-429, limits assumed, looked up): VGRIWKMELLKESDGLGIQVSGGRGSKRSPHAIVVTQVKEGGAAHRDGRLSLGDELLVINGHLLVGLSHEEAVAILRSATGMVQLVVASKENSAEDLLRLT
Experiment: holdup assay
Parameters: key: below the threshold = too weak to quantify, mostly under pKd 3.1 to 4
Conditions: plain residues with an end cap or a label only (N-terminal biotin on a linker: ado-ado)
Items are presented alongside their recorded pKd.
property label: pKd

| binder | property label | value observed |
| --- | --- | --- |
| FHSIKQSTAV [CRHR1, P34998] | pKd | 4.48 |
| VISSDDLTEL [CAPN6, Q9Y6Q1] | pKd | 4.39 |
| EAVTVESTSL [SLC22A11, Q9NSA0] | pKd | 4.4 |
| EFKQTSSFLV [JAM1, Q9Y624] | pKd | 3.72 |
| YAEKRMLTEV [KCNA6, P17658] | pKd | 4.34 |
| PKSNSSKEYV [CLDN7, O95471] | pKd | 3.82 |

The reported numbers originate from paper PMC9482650.
